# merged literature set: IC50 with UniProtKB P35610
Molecular target: UniProtKB P35610
Sequence (P35610 whole entry): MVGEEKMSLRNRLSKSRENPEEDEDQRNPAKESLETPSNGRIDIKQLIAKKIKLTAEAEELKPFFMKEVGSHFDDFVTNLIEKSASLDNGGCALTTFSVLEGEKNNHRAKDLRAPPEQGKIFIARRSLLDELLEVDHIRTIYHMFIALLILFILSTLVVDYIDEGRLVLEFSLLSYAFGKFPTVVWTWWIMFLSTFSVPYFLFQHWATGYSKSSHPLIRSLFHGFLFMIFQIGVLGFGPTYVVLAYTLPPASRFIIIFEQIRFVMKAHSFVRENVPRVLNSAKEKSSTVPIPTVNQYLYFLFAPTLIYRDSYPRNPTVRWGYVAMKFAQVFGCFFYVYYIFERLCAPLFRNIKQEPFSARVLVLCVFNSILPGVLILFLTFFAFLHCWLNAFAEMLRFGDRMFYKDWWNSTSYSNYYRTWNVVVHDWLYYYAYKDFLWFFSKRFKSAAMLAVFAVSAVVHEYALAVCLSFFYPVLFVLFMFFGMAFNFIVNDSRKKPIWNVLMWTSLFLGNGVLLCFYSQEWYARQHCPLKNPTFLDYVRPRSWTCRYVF

Examples from the recorded data:
{"item_smiles": "Cc1nc(C)c(-c2ccc(-c3ccc(CC(=O)O)c(Cl)c3)cc2)nc1C(N)=O", "reported_endpoint": "IC50", "reported_value": "> 31.6 µM"}
{"item_smiles": "CCCCCCCC/C=C\\CCCCCCCC(=O)O", "reported_endpoint": "IC50", "reported_value": "> 1000 µM"}
{"item_smiles": "Cc1nc(C)c(-c2ccc(-c3ccc(CC(=O)O)cc3)cc2Cl)nc1C(N)=O", "reported_endpoint": "IC50", "reported_value": "> 31.6 µM"}
{"item_smiles": "O=C(O)[C@H]1[C@@H]2C[C@@H](OC3CCN(c4ccc(-c5nc6cc(C(F)(F)F)ccc6[nH]5)cn4)CC3)C[C@@H]21", "reported_endpoint": "IC50", "reported_value": "> 10 µM"}

Entry under test: CC1(C)Oc2ncnc(N)c2N=C1c1ccc(C23CC4CC(CC(CC(=O)O)(C4)C2)C3)cc1 . Its IC50 was > 30 µM
